- condition.parameters: 273.15 K; 101.33 kPa; Crystal; relaxation calorimetry
A collection of molecules and their measured molar entropy
property.name: molar entropy (J/K/mol)

{"molecule": "OC[C@H](O)C(O)[C@@H](O)CO [L-(-)-arabitol]", "property.name": "molar entropy", "result.units": "J/K/mol", "value.observed": 184.6}
{"molecule": "OC[C@@H](O)[C@@H](O)CO", "property.name": "molar entropy", "result.units": "J/K/mol", "value.observed": 151.57}
{"molecule": "OC[C@@H](O)[C@@H](O)[C@H](O)[C@H](O)CO", "property.name": "molar entropy", "result.units": "J/K/mol", "value.observed": 207.65}
{"molecule": "OC[C@@H](O)C(O)[C@H](O)CO", "property.name": "molar entropy", "result.units": "J/K/mol", "value.observed": 182.82}
{"molecule": "OC[C@@H](O)[C@H](O)[C@@H](O)CO", "property.name": "molar entropy", "result.units": "J/K/mol", "value.observed": 180.78}
{"molecule": "O[C@H]1[C@H](O)[C@@H](O)[C@H](O)[C@@H](O)[C@H]1O [cis-1,2,3,5-trans-4,6-cyclohexanehexol]", "property.name": "molar entropy", "result.units": "J/K/mol", "value.observed": 179.88}

----------
- condition.parameters: 290 K; 101.33 kPa; Crystal; relaxation calorimetry
A collection of compounds and their measured molar entropy

{"compound": "O[C@H]1[C@H](O)[C@@H](O)[C@H](O)[C@@H](O)[C@H]1O [cis-1,2,3,5-trans-4,6-cyclohexanehexol]", "result.units": "J/K/mol", "molar entropy": 192.17}
{"compound": "OC[C@@H](O)[C@H](O)[C@@H](O)CO", "result.units": "J/K/mol", "molar entropy": 192.47}
{"compound": "OC[C@@H](O)[C@@H](O)[C@H](O)[C@H](O)CO", "result.units": "J/K/mol", "molar entropy": 220.71}
{"compound": "OC[C@@H](O)C(O)[C@H](O)CO", "result.units": "J/K/mol", "molar entropy": 194.23}
{"compound": "OC[C@@H](O)[C@@H](O)CO", "result.units": "J/K/mol", "molar entropy": 160.92}
{"compound": "OC[C@H](O)C(O)[C@@H](O)CO [L-(-)-arabitol]", "result.units": "J/K/mol", "molar entropy": 196.25}

----------
- experiment: molar heat capacity at constant pressure
- condition.parameters: 297.15 K; 101.33 kPa; Crystal; Small sample (50 mg) DSC
Numbers after ± are expanded uncertainties.

{"molecule": "OC[C@@H](O)[C@H](O)[C@@H](O)CO", "molar heat capacity at constant pressure": "208.58 ± 13 J/K/mol"}
{"molecule": "OC[C@H](O)C(O)[C@@H](O)CO [L-(-)-arabitol]", "molar heat capacity at constant pressure": "206.12 ± 41 J/K/mol"}
{"molecule": "OC[C@@H](O)C(O)[C@H](O)CO", "molar heat capacity at constant pressure": "200.51 ± 16 J/K/mol"}
{"molecule": "OC[C@@H](O)[C@@H](O)CO", "molar heat capacity at constant pressure": "164.09 ± 20 J/K/mol"}
{"molecule": "OC[C@@H](O)[C@@H](O)[C@H](O)[C@H](O)CO", "molar heat capacity at constant pressure": "229.12 ± 37 J/K/mol"}
{"molecule": "O[C@H]1[C@H](O)[C@@H](O)[C@H](O)[C@@H](O)[C@H]1O [cis-1,2,3,5-trans-4,6-cyclohexanehexol]", "molar heat capacity at constant pressure": "216.77 ± 30 J/K/mol"}

Source of measurements: the NIST ThermoML archive (doi:10.1016/j.jct.2017.08.004)
